tested.system: Human EphA2 (ephrin receptor A2) on cells (human, UniProt P29317 25-976)
Sequence (P29317 25-976): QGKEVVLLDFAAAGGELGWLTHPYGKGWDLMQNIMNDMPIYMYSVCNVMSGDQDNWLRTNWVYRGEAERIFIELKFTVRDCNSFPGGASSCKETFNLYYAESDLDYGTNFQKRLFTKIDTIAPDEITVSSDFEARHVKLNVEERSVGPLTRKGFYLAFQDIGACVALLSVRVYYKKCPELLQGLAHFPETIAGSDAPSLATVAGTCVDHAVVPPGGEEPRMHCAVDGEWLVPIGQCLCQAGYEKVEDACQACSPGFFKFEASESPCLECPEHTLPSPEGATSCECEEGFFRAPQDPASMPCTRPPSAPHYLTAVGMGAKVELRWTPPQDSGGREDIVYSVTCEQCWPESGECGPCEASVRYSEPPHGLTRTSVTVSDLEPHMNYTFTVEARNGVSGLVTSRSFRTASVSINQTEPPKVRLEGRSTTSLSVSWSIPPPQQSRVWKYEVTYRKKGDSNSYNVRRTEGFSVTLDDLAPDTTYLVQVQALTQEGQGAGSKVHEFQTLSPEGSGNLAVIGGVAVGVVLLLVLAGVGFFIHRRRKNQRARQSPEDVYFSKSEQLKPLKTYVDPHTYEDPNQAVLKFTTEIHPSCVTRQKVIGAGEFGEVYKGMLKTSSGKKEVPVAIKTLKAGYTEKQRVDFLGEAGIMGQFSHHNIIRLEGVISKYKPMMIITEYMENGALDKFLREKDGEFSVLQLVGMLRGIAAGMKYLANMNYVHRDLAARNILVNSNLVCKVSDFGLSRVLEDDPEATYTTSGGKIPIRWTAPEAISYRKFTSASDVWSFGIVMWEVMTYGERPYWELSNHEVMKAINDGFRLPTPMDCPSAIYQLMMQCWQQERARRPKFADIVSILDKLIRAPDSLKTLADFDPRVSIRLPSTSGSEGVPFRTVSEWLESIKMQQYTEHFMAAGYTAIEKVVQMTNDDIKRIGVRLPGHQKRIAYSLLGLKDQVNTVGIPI
assay.notes: cell-based or functional assay
reported.endpoint: ADCC - EC50 (nM), Trial 1, A549
Only the number, expressed in nM, is required.

AB-010670 (antibody, V domains shown) VH: QVQLQQWGAGLLKPSETLSLTCAVYGGSFSDYYWSWIRQPPGKGLEWIGEINHRGSINYNNYNPSLKSRVTISVDTSKNQFSLKLSSVTAADTAVYYCAKPLRPHCINGVCYSGDAFDIWGQGTMVTVAS VL: SYVLTQPPSVSVAPGQTARITCGGNNIGSKNVHWYQQKPGQAPVLVVYDDSDRPSGIPEQFSGSNSGNTATLTISRVEAGDEADYYCQVWDHSSDHVVFGGGTKLTVL = 0.36

Now for the binder whose ADCC - EC50 (nM), Trial 1, A549 we want.
# get_value(readout='ADCC - EC50 (nM), Trial 1, A549', item= AB-010668 (antibody, V domains shown) VH: QVQLQQWGAGLLKPSETLSLTCAVYGGSFSDYYWSWIRQPPGKGLEWIGEINHRGSINYNNYNPSLKSRVTISVDTSKNQFSLKLSSVTAADTAVYYCAKPLRPHCINGVCYSGDAFDIWGQGTMVTVAS VL: SYVLTQPPSVSVAPGQTARITCGGNNIGSMNVHWYQQKPGQAPVLVVYDDSDRPSGIPEQFSGSNSGNTATLTISRVEAGDEADYYCQVWDSSSDHVVFGGGTKLTVL ) 3.7

The measured values listed here are drawn from patent US20250276077A1.
